biological target: prostate specific antigen (PSA) (human, UniProt P07288 25-261); test: chronoamperometry; RT (electrochemistry), pH 7.4; PSA-1, B4 and truncations: 1x PBS (10 mM phosphate, 154 mM NaCl); 24nt variants: 10 mM Tris-HCl, 150 mM NaCl, 5 mM KCl, 5 mM MgCl2; Gli1 series: 50 mM Tris-HCl, 250 mM NaCl, 5 mM MgCl2; conditions: protein: native; label: 5' 6FAM
Sequence (P07288 25-261): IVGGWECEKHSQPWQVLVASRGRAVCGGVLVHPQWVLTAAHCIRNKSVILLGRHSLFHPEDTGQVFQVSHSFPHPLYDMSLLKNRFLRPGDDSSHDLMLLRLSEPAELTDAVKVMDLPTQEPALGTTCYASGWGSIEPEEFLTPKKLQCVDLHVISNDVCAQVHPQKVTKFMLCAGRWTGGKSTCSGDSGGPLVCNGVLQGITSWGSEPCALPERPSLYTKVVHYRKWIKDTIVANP
For each of the binders below, state its Kd.
One number for each entry, in nM.

>  <BINDER>
TTTTTGGACGGTTGCGCTATATTTAACCAAAAGTCTGGATTAACA (ssDNA) [PSA-1]

>  <PROPERTY_MEASURED>
Kd

>  <REPORTED_MEASUREMENT>
348

$$$$

Continue with the binder presented below.
Data request, read-out Kd, for TTTTTTATTTAACCAAAAGTCTGGATTAACA (ssDNA) [PSA-1T(15-40)]
111

Cited source: paper PMC12261273
